Source: patent US20240309103A1

TARGET OR TEST SYSTEM: T1, mouse NPR1 extracellular domain expressed with a C-terminal mouse IgG2a (mNPR1-mFc) (mouse)
T1 chain: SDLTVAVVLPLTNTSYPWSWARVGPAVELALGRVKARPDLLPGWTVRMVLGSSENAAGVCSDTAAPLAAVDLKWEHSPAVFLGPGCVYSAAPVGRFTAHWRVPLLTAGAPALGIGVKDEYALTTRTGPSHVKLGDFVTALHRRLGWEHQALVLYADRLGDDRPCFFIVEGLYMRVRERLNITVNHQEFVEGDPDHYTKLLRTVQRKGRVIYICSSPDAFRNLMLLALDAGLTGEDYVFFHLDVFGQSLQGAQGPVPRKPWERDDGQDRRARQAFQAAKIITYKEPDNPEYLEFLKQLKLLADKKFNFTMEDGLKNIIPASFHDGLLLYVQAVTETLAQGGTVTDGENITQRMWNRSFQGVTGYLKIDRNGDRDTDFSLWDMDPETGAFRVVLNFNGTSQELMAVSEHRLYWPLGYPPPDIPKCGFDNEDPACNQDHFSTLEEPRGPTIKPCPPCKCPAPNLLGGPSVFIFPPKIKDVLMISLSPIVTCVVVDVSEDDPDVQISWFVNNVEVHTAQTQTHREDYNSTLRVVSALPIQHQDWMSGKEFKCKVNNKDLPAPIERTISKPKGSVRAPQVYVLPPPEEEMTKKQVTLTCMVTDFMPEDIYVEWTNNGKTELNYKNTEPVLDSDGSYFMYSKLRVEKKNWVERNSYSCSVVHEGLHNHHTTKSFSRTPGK
TEST DETAILS: SPR, Tables 21 to 26
ASSAY ENDPOINT: binding result

[[record]]
binder = "mAb25502 (antibody, V domains shown) VH: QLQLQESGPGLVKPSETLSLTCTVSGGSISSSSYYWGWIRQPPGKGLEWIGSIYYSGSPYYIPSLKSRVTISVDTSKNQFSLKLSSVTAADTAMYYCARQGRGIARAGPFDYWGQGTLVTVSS VL: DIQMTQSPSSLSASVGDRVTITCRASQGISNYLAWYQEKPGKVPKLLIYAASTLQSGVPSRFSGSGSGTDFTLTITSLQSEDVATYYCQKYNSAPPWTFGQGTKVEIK"
assay_endpoint = "binding result"
value = "no binding"

[[record]]
binder = "mAb25491 (antibody, V domains shown) VH: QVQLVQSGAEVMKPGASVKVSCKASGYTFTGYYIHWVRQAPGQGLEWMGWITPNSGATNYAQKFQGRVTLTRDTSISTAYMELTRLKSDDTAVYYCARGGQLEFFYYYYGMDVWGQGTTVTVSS VL: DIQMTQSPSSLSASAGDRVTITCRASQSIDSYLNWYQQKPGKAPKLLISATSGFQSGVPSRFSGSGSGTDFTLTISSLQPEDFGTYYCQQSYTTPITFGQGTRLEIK"
assay_endpoint = "binding result"
value = "no binding"

[[record]]
binder = "mAb25497 (antibody, V domains shown) VH: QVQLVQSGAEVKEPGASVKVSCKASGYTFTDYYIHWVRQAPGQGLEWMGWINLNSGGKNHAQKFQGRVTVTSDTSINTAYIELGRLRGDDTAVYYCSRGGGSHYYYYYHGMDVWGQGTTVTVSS VL: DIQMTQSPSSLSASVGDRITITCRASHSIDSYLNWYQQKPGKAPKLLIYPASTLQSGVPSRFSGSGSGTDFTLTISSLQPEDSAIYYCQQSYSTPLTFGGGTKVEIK"
assay_endpoint = "binding result"
value = "no binding"

